# assayTarget: F508delCFTR (Homo sapiens, UniProt P13569, DEL508-508)
# Construct: expressed in transfected cells; host or cells: CFBE41o- human lung-derived epithelial cell line, doxycycline-inducible expression
# Sequence (P13569 with tags, fused parts or gaps DEL508-508): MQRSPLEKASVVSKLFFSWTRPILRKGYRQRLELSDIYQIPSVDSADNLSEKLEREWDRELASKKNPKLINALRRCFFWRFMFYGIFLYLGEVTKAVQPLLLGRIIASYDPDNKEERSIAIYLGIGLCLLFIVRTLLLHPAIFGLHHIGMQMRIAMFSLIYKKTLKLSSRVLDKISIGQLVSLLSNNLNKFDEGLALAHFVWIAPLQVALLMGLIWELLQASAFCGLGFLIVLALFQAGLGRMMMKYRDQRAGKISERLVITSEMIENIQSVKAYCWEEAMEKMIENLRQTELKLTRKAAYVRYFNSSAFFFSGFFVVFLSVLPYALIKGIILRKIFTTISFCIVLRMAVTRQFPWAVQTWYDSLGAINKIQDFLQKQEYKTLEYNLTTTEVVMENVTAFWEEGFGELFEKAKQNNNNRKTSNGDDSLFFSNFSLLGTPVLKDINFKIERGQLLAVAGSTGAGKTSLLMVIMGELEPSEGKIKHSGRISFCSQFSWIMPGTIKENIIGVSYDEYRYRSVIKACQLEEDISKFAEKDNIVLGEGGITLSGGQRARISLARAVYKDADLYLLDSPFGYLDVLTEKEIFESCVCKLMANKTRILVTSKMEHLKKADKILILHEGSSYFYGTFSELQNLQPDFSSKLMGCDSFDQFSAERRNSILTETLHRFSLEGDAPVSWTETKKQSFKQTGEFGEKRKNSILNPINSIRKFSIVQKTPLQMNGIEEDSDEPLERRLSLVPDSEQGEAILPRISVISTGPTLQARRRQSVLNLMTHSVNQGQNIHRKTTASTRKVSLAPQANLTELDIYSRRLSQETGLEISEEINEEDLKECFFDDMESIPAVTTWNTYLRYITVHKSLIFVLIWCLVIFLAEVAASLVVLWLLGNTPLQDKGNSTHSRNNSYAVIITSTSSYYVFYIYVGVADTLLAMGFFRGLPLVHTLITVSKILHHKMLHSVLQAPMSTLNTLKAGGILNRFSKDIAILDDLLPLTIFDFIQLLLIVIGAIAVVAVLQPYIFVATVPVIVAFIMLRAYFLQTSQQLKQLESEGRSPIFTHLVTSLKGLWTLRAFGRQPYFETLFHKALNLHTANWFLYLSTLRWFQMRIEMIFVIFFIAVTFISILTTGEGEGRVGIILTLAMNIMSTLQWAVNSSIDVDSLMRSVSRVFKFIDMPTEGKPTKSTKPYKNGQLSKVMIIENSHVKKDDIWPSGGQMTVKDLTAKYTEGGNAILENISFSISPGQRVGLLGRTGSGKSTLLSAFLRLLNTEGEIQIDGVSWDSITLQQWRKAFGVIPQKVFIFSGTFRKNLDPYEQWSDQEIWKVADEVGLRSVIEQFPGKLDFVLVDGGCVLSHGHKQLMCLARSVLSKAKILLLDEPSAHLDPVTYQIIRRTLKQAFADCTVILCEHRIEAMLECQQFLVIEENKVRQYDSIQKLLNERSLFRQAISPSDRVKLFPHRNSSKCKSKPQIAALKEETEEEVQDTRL
# runDescription: Cell Surface Expression-Horse Radish Peroxidase (CSE-HRP) assay in CFBE41o-F508delCFTR-HRP cells
# Format: cell-based
# conditionContext: without co-corrector; normalized to on-plate positive control corrector (2 μM)
resultType: Maximum % activity (without co-corrector) (%)

{"compound": "COc1ccc(C)cc1[C@@]1(C(=O)NS(=O)(=O)c2cccc3nc(C)ccc23)C[C@H]1c1ccccc1F (single isomer, unassigned) [Example 26]", "unit": "%", "measured": 515}
{"compound": "COc1ccc(C)cc1[C@]1(C(=O)NS(=O)(=O)c2cccc3nc(C)ccc23)C[C@@H]1c1ccccc1C(F)(F)F (racemic) [Example 29]", "unit": "%", "measured": 666}
{"compound": "COc1ccc(C)cc1[C@]1(C(=O)NS(=O)(=O)c2cccc3nc(C)ccc23)C[C@@H]1c1ccc(N(C)C)nc1 [Example 68]", "unit": "%", "measured": 657}
